- TGT: acetylcholinesterase (AChE) (Electrophorus electricus, UniProt O42275)
- Sequence (O42275 24-633): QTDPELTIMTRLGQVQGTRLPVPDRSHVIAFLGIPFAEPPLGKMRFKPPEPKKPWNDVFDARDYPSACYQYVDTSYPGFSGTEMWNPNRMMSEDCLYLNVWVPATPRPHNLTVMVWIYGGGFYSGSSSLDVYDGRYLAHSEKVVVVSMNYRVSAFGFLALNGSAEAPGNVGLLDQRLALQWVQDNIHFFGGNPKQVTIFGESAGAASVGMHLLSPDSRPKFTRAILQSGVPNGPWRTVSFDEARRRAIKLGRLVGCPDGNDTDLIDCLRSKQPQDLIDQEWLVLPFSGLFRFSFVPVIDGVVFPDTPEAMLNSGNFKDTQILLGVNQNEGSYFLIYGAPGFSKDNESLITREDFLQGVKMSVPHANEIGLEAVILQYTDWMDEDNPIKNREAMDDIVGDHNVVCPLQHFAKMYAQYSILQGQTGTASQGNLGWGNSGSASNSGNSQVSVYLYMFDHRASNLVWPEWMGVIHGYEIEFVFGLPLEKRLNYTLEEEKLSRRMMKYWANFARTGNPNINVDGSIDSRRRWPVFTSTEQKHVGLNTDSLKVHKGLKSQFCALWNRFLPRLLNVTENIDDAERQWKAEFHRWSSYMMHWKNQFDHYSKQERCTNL
QUANTITY_KIND: IC50 (µM)
Could you give me the number in µM? Just the number is fine.

Q: Tell me IC50 of CCCCCCCCCCCC1=C(O)C(=O)C=C(O)C1=O [embelin] when tested on acetylcholinesterase (AChE) (Electrophorus electricus, UniProt O42275).
Result: 169
